assayedTarget: human recombinant ENPP1 (Homo sapiens, UniProt P22413)
Construct: purchased R & D systems
Sequence (P22413 whole entry): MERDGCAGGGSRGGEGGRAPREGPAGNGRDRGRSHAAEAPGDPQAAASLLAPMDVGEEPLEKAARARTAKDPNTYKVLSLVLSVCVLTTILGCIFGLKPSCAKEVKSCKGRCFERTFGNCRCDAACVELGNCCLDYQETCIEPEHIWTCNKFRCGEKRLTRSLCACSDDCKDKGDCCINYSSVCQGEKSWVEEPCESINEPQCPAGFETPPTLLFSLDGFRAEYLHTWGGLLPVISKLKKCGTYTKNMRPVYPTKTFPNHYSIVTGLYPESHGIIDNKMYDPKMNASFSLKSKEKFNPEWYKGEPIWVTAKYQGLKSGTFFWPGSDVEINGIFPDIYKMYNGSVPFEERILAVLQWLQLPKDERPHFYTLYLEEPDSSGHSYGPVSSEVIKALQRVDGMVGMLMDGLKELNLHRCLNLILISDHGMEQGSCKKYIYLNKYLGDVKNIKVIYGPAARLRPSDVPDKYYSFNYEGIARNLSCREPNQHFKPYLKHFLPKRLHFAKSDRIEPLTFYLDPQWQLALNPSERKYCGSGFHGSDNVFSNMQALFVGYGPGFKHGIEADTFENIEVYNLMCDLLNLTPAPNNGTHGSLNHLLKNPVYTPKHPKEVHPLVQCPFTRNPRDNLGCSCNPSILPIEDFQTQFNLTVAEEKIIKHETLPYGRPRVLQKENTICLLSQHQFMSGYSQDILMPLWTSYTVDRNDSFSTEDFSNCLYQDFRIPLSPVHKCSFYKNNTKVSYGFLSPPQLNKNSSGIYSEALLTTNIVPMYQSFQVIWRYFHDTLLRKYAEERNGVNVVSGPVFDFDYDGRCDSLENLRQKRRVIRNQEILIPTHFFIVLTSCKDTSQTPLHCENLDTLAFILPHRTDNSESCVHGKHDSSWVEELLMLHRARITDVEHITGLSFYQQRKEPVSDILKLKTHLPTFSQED
protocolSummary: ENPP1 enzyme assay with cGAMP substrate (AMP-Glo luminescence)
Assay type: biochemical
assayConditions: human recombinant ENPP1 3 ng/reaction, cGAMP 5 μM, 37° C. 90 minutes, read-out: Enzymatic activity (ENPP1 IC50)
Where a name gives a salt, the structure may show the parent alone.
Recorded IC50 for the following molecules

Consider the following illustrative entries.
- molecule: "NS(=O)(=O)Nc1ccc(Cc2n[nH]c(=O)c3ccccc23)cc1F [Example 190, hydrochloride]"
  IC50: "< 1 µM"
- molecule: "Cn1nc(-c2ccc(NS(N)(=O)=O)cc2)c2ccccc2c1=O [Compound No. 92]"
  IC50: "< 1 µM"
- molecule: "COc1cc2c(Cc3ccc(N(C)C(=O)OC(C)(C)C)cc3)n[nH]c(=O)c2cc1OC [Example 152]"
  IC50: "> 10 µM"
- molecule: "Nc1cccc(-c2n[nH]c(=O)c3ccccc23)c1 [Compound No. 30, hydrochloride]"
  IC50: "> 10 µM"
- molecule: "COc1cc2c(-c3ccc(CN(C)S(N)(=O)=O)c(F)c3F)n[nH]c(=O)c2cc1OC [Compound No. 117, hydrochloride]"
  IC50: "> 10 µM"

Need IC50, item CC(C)n1nc(-c2ccc(CNS(N)(=O)=O)cc2)c2ccccc2c1=O [Compound No. 99, trifluoroacetic acid]
> 10 µM

Entry COc1cc2c(-c3ccc(CNS(N)(=O)=O)cc3)nn(C)c(=O)c2cc1OC [Compound No. 108, hydrochloride] please
1 to 10 µM

Where these numbers come from: patent US20230159469A1
